experiment: qHTS for inhibitors of Vif-A3G interactions: Cherry picks; settings: HeLa A3G-eYFP + Vif (tagged APOBEC3G with the HIV-1 protein that degrades it), 24 h; eYFP fluorescence increase; series mostly up to 36.9 µM; further: nearly all actives have a fitted effect of over 80% in size
Among all 2,100 compounds or so, about 650 (31%) were called active. Not shown: some 16% with an inconclusive outcome. The call rests on the fitted dose curve; in most records, active means well fitted inhibition curve with a large enough effect; inconclusive means small, poorly fitted or top-dose-only effect; inactive means flat fitted curve, though single readings scatter. The list shows a part of the results.
Your response should consist of one outcome taken from active, inactive

Assay outcome for CCN(CC(=O)Nc1ccccc1-c1ccccc1)Cc1nc2ccccc2c(=O)[nH]1 : what was it? inactive

Assay outcome for Cc1ccccc1/C=C\c1nc2ccccc2c(=O)[nH]1 : what was it? inactive

Assay outcome for CC(=O)Nc1ccc(S(=O)(=O)Nc2nc3ccccc3nc2Nc2ccc(N)cc2)cc1 : what was it? inactive

Assay outcome for CCOc1ccccc1C1CC(c2cccs2)=NN1S(C)(=O)=O (stereo not given) : what was it? active

Assay outcome for Cc1ccc(NC(=O)/C(C#N)=C\c2ccc(-c3ccc(Cl)cc3)o2)c(C)c1 : what was it? active

Assay outcome for CCn1c(SCC(=O)N/N=C/c2ccc(C)s2)nc2ccccc21 : what was it? inactive

Assay outcome for CN(C)c1ccc(Nc2nc3ccccc3n3nnnc23)cc1 : what was it? inactive

Assay outcome for COc1ccccc1/C=N/NC(=O)c1cc2c(OC)c(OC)ccc2[nH]1 : what was it? inactive

Assay outcome for COC(=O)[C@@]1(Cc2ccccc2)[C@@H]2C(=CC(=O)[C@H]2CC(=O)C(=O)N(C)C)CN1C(=O)c1ccccc1 : what was it? inactive

Assay outcome for CC(C)Cn1c(N)c(C(=O)COC(=O)c2ccc([N+](=O)[O-])o2)c(=O)n(C)c1=O : what was it? inactive

Assay outcome for CC(NC(=O)c1ccc(Nc2nc3ccccc3n3nnnc23)cc1)c1ccccc1 (stereo not given) : what was it? active

Assay outcome for C[n+]1ccc(/C=C/c2c[nH]c3ccccc23)cc1 : what was it? active

Assay outcome for c1cncc(-c2nc(NCc3cccs3)c3ccccc3n2)c1 : what was it? inactive

Assay outcome for CCOC(=O)C1=C(C)N=c2sc(=Cc3cc(Cl)c(OCC(=O)O)c(Cl)c3)c(=O)n2C1c1cccc(OC)c1 (stereo not given) : what was it? inactive

Assay outcome for CCC1CCCCN1CCCNC(=O)c1ccc2c(c1)N(Cc1ccccc1F)C(=O)c1ccccc1S2(=O)=O (stereo not given) : what was it? inactive

Assay outcome for Oc1ccccc1-c1nc(NCc2ccccc2)c2ccccc2n1 : what was it? active

Assay outcome for CC12CC3CC(C)(C1)CC(C(=O)NC(=S)N1CCOCC1)(C3)C2 : what was it? inactive

Assay outcome for CCCN1CCc2c(sc(NC(=O)c3ccc(S(=O)(=O)N(C)c4ccccc4)cc3)c2C(N)=O)C1 : what was it? active

Assay outcome for Fc1ccc(CNc2nc3ccccc3n3nnnc23)cc1 : what was it? active

Assay outcome for Cc1nc(SCC(=O)c2ccccc2)c(C#N)c(-c2ccco2)c1C(=O)NCc1ccco1 : what was it? inactive

Assay outcome for COc1ccc(-c2cc(NC=O)c3ncc(-c4ccc(OC)c(OC)c4)n3c2)cc1OC : what was it? inactive

Assay outcome for Cc1ccc(C(=O)CSC2=C(C#N)C(c3ccco3)C3=C(CCCC3=O)N2)cc1 (stereo not given) : what was it? inactive

Assay outcome for O=C1CN(C(=O)c2cc(Br)c(Br)s2)c2ccccc2N1 : what was it? inactive

Assay outcome for O=C(Nc1cc(Cl)ccc1-n1cncn1)c1ccc([N+](=O)[O-])s1 : what was it? active

Assay outcome for C=CCSc1nc2ccccc2n1C(=O)/C=C/c1cc(OC)c(OC)c(OC)c1 : what was it? inactive

Assay outcome for N#C/C(=C/c1ccc(-c2ccc([N+](=O)[O-])cc2)o1)C(=O)Nc1nc(-c2cccs2)cs1 : what was it? inactive

Assay outcome for COc1cc(-c2noc(C)c2/C=C/c2ccc(OC(C)=O)cc2)cc(OC)c1OC : what was it? inactive

Assay outcome for COc1cc(C2Oc3ccccc3C=C2[N+](=O)[O-])cc(OC)c1OC (stereo not given) : what was it? inactive

Assay outcome for O=c1[nH]c(-c2cccnc2)nc2sc(-c3ccccc3)cc12 : what was it? inactive

Assay outcome for Cc1ccc(-c2cc(C(=O)N/N=C/C(Br)=C/c3ccccc3)n[nH]2)o1 : what was it? inactive

Assay outcome for Cc1cccc(N=C2NC(=O)/C(=C/c3cccn3C)S2)c1 : what was it? inactive

Assay outcome for O=C(Cn1cnc2c(cnn2-c2ccc(F)cc2)c1=O)NCc1ccco1 : what was it? inactive

Assay outcome for CC(C)(C)C(=O)Nc1sc2c(c1C#N)CCN(Cc1ccccc1)C2 : what was it? inactive

Assay outcome for c1ccc2c(c1)nc(N1CCOCC1)c1nnnn12 : what was it? inactive

Assay outcome for COc1ccccc1N(C)S(=O)(=O)c1ccc(C(=O)OCC(=O)N2CCC2)cc1 : what was it? inactive
